# System: Escherichia coli
# measurement.protocol: Selectivity ratio of IC50 for Escherichia coli DNA gyrase gyrA A67S mutant to IC50 for Escherichia coli wild-type DNA gyrase

{"columns": ["compound.structure", "Ratio IC50"],
 "data": [
  ["CC[C@@H]1CCN(c2c(F)cc3c(=O)n(N)c(=O)n(C4CC4)c3c2OC)C1", 0.86],
  ["CC[C@@H]1CCN(c2c(F)cc3c(=O)c(C(=O)O)cn(C4CC4)c3c2OC)C1", 0.75],
  ["CC[C@@H]1CCN(c2c(F)cc3c(=O)n(N)c(=O)n(C4CC4)c3c2C)C1", 1.3],
  ["CC[C@@H]1CCN(c2c(F)cn3c(=O)n(N)c(=O)c(C4CC4)c3c2OC)C1", 1.7]
]}

====

# target.entity: DNA gyrase (Staphylococcus aureus, UniProt P0A0K8+P20831)
# measurement.protocol: Inhibition of DNA supercoiling activity of Staphylococcus aureus DNA gyrase
# key: entry, value: IC50

{"columns": ["compound.structure", "unit.descriptor", "IC50"],
 "data": [
  ["CC[C@@H]1CCN(c2c(F)cc3c(=O)n(N)c(=O)n(C4CC4)c3c2OC)C1", "µM", 2.3],
  ["CC[C@@H]1CCN(c2c(F)cc3c(=O)n(N)c(=O)n(C4CC4)c3c2C)C1", "µM", 1.6],
  ["CC[C@@H]1CCN(c2c(F)cc3c(=O)c(C(=O)O)cn(C4CC4)c3c2OC)C1", "µM", 1.1],
  ["CC[C@@H]1CCN(c2c(F)cn3c(=O)n(N)c(=O)c(C4CC4)c3c2OC)C1", "µM", 36.5]
]}

====

# key: entry, value: Ratio IC50
# Test system: Staphylococcus aureus
# measurement.protocol: Selectivity index, ratio of IC50 for Staphylococcus aureus Topoisomerase 4 to IC50 for Staphylococcus aureus DNA gyrase
readout.name: Ratio IC50

{"columns": ["compound.structure", "readout.name", "value"],
 "data": [
  ["CC[C@@H]1CCN(c2c(F)cc3c(=O)n(N)c(=O)n(C4CC4)c3c2OC)C1", "Ratio IC50", 2.4],
  ["CC[C@@H]1CCN(c2c(F)cc3c(=O)c(C(=O)O)cn(C4CC4)c3c2OC)C1", "Ratio IC50", 2.2],
  ["CC[C@@H]1CCN(c2c(F)cc3c(=O)n(N)c(=O)n(C4CC4)c3c2C)C1", "Ratio IC50", 1.8],
  ["CC[C@@H]1CCN(c2c(F)cn3c(=O)n(N)c(=O)c(C4CC4)c3c2OC)C1", "Ratio IC50", 1.3]
]}

====

# System: Escherichia coli
# measurement.protocol: Ratio of CC3 for Escherichia coli DNA gyrase gyrA A67S mutant to CC3 for Escherichia coli wild-type DNA gyrase

{"columns": ["compound.structure", "Ratio"],
 "data": [
  ["CC[C@@H]1CCN(c2c(F)cc3c(=O)n(N)c(=O)n(C4CC4)c3c2OC)C1", 1.7],
  ["CC[C@@H]1CCN(c2c(F)cc3c(=O)c(C(=O)O)cn(C4CC4)c3c2OC)C1", 1.5],
  ["CC[C@@H]1CCN(c2c(F)cn3c(=O)n(N)c(=O)c(C4CC4)c3c2OC)C1", 1.5],
  ["CC[C@@H]1CCN(c2c(F)cc3c(=O)n(N)c(=O)n(C4CC4)c3c2C)C1", 2.5]
]}

====

# Test system: Escherichia coli
# measurement.protocol: Selectivity ratio of IC50 for Escherichia coli DNA gyrase gyrA G81C mutant to IC50 for Escherichia coli wild-type DNA gyrase

{"columns": ["compound.structure", "Ratio IC50"],
 "data": [
  ["CC[C@@H]1CCN(c2c(F)cc3c(=O)n(N)c(=O)n(C4CC4)c3c2C)C1", 1.8],
  ["CC[C@@H]1CCN(c2c(F)cc3c(=O)c(C(=O)O)cn(C4CC4)c3c2OC)C1", 7.5],
  ["CC[C@@H]1CCN(c2c(F)cc3c(=O)n(N)c(=O)n(C4CC4)c3c2OC)C1", 1.5],
  ["CC[C@@H]1CCN(c2c(F)cn3c(=O)n(N)c(=O)c(C4CC4)c3c2OC)C1", 2.8]
]}

====

# key: entry, value: Ratio IC50
# Test system: Escherichia coli
# measurement.protocol: Selectivity ratio of IC50 for Escherichia coli DNA gyrase gyrA S83W mutant to IC50 for Escherichia coli wild-type DNA gyrase

{"columns": ["compound.structure", "Ratio IC50"],
 "data": [
  ["CC[C@@H]1CCN(c2c(F)cc3c(=O)n(N)c(=O)n(C4CC4)c3c2OC)C1", 2.1],
  ["CC[C@@H]1CCN(c2c(F)cc3c(=O)n(N)c(=O)n(C4CC4)c3c2C)C1", 4],
  ["CC[C@@H]1CCN(c2c(F)cc3c(=O)c(C(=O)O)cn(C4CC4)c3c2OC)C1", 8.8],
  ["CC[C@@H]1CCN(c2c(F)cn3c(=O)n(N)c(=O)c(C4CC4)c3c2OC)C1", 6.1]
]}

====

# key: entry, value: pIC50
# target.entity: DNA gyrase subunit A (Escherichia coli K-12, UniProt P0AES4, A67S)
# measurement.protocol: Inhibition of DNA supercoiling activity of Escherichia coli DNA gyrase gyrA A67S mutant
pIC50: −log10 of the molar value.
readout.name: pIC50

{"columns": ["compound.structure", "target.entity", "value"],
 "data": [
  ["CC[C@@H]1CCN(c2c(F)cc3c(=O)c(C(=O)O)cn(C4CC4)c3c2OC)C1", "DNA gyrase subunit A (Escherichia coli K-12, UniProt P0AES4, A67S)", 6.92],
  ["CC[C@@H]1CCN(c2c(F)cc3c(=O)n(N)c(=O)n(C4CC4)c3c2C)C1", "DNA gyrase subunit A (Escherichia coli K-12, UniProt P0AES4, A67S)", 5.92],
  ["CC[C@@H]1CCN(c2c(F)cc3c(=O)n(N)c(=O)n(C4CC4)c3c2OC)C1", "DNA gyrase subunit A (Escherichia coli K-12, UniProt P0AES4, A67S)", 5.62],
  ["CC[C@@H]1CCN(c2c(F)cn3c(=O)n(N)c(=O)c(C4CC4)c3c2OC)C1", "DNA gyrase subunit A (Escherichia coli K-12, UniProt P0AES4, A67S)", 4.72]
]}

====

# target.entity: DNA gyrase subunit A (Escherichia coli K-12, UniProt P0AES4, G81C)
# measurement.protocol: Inhibition of DNA supercoiling activity of Escherichia coli DNA gyrase gyrA G81C mutant
# key: entry, value: IC50

{"columns": ["compound.structure", "unit.descriptor", "IC50"],
 "data": [
  ["CC[C@@H]1CCN(c2c(F)cc3c(=O)n(N)c(=O)n(C4CC4)c3c2OC)C1", "µM", 4.3],
  ["CC[C@@H]1CCN(c2c(F)cn3c(=O)n(N)c(=O)c(C4CC4)c3c2OC)C1", "µM", 31],
  ["CC[C@@H]1CCN(c2c(F)cc3c(=O)c(C(=O)O)cn(C4CC4)c3c2OC)C1", "µM", 1.2],
  ["CC[C@@H]1CCN(c2c(F)cc3c(=O)n(N)c(=O)n(C4CC4)c3c2C)C1", "µM", 1.7]
]}

====

# Test system: Escherichia coli
# measurement.protocol: Ratio of CC3 for Escherichia coli DNA gyrase gyrA S83W mutant to CC3 for Escherichia coli wild-type DNA gyrase
# key: entry, value: Ratio

{"columns": ["compound.structure", "target.entity", "Ratio"],
 "data": [
  ["CC[C@@H]1CCN(c2c(F)cn3c(=O)n(N)c(=O)c(C4CC4)c3c2OC)C1", "Escherichia coli", 3.4],
  ["CC[C@@H]1CCN(c2c(F)cc3c(=O)n(N)c(=O)n(C4CC4)c3c2OC)C1", "Escherichia coli", 2.1],
  ["CC[C@@H]1CCN(c2c(F)cc3c(=O)c(C(=O)O)cn(C4CC4)c3c2OC)C1", "Escherichia coli", 6.5],
  ["CC[C@@H]1CCN(c2c(F)cc3c(=O)n(N)c(=O)n(C4CC4)c3c2C)C1", "Escherichia coli", 5.6]
]}

====

# key: entry, value: Ratio IC50
# System: Escherichia coli
# measurement.protocol: Selectivity index, ratio of IC50 for Escherichia coli Topoisomerase 4 to IC50 for Escherichia coli DNA gyrase

{"columns": ["compound.structure", "Ratio IC50"],
 "data": [
  ["CC[C@@H]1CCN(c2c(F)cc3c(=O)c(C(=O)O)cn(C4CC4)c3c2OC)C1", 10.6],
  ["CC[C@@H]1CCN(c2c(F)cn3c(=O)n(N)c(=O)c(C4CC4)c3c2OC)C1", 14.8],
  ["CC[C@@H]1CCN(c2c(F)cc3c(=O)n(N)c(=O)n(C4CC4)c3c2OC)C1", 5.7],
  ["CC[C@@H]1CCN(c2c(F)cc3c(=O)n(N)c(=O)n(C4CC4)c3c2C)C1", 6.3]
]}

====

# target.entity: DNA gyrase subunit A (Escherichia coli K-12, UniProt P0AES4, S83W)
# measurement.protocol: Inhibition of DNA supercoiling activity of Escherichia coli DNA gyrase gyrA S83W mutant
pIC50: −log10 of the molar value.
# key: entry, value: pIC50

{"columns": ["compound.structure", "pIC50"],
 "data": [
  ["CC[C@@H]1CCN(c2c(F)cn3c(=O)n(N)c(=O)c(C4CC4)c3c2OC)C1", 4.17],
  ["CC[C@@H]1CCN(c2c(F)cc3c(=O)c(C(=O)O)cn(C4CC4)c3c2OC)C1", 5.85],
  ["CC[C@@H]1CCN(c2c(F)cc3c(=O)n(N)c(=O)n(C4CC4)c3c2C)C1", 5.42],
  ["CC[C@@H]1CCN(c2c(F)cc3c(=O)n(N)c(=O)n(C4CC4)c3c2OC)C1", 5.23]
]}
